These entries and their values trace back to patent US9346815B2.

- target_system: isolated recombinant JAK2 kinase domain (Homo sapiens (Human))
- assay_name: JAK2 enzyme assay (Caliper LabChip, peptide phosphorylation)
- reported_conditions: 25 μM ATP
pKi: −log10 of the molar value.
test_readout: pKi

>>> measurement("CC1CN(C)CCN1C(=O)Cn1cc(NC(=O)c2cnn3cccnc23)c(-c2cc(Cl)ccc2OC(F)F)n1 (stereo not shown)")
8.81

[1] CNC(=O)CN1CCN(C(=O)Cn2cc(NC(=O)c3cnn4cccnc34)c(-c3cc(Cl)ccc3OC(F)F)n2)CC1
[2] CCCCN(C)CC#Cc1nc(-c2cc(Cl)ccc2OC(F)F)c(NC(=O)c2cnn3cccnc23)s1
[3] CCCCN(CCOc1ccc(C)cc1)C1CCN(C(=O)Cn2cc(NC(=O)c3cnn4cccnc34)c(-c3cc(Cl)ccc3OC(F)F)n2)CC1
Challenge: Form: Sort by [pKi] Order [ ascending ] # answer = labels listed in requested order
Response given: 3, 1, 2
(3: 8.44, 1: 9.18, 2: 10.00)

[A] CN1CCN(CC2CCN(C(=O)Cn3cc(NC(=O)c4cnn5cccnc45)c(-c4cc(Cl)ccc4OC(F)F)n3)CC2)CC1
[B] O=C(Nc1cn(Cc2cn(C3CCN(C4CCOC4)CC3)nn2)nc1-c1cc(Cl)ccc1OC(F)F)c1cnn2cccnc12 (stereo not shown)
[C] CN(C)C(=O)[C@@H]1CCCN1C1CCN(C(=O)Cn2cc(NC(=O)c3cnn4cccnc34)c(-c3cc(Cl)ccc3OC(F)F)n2)CC1
[D] N#CC1(c2ccccc2)CCN(C(=O)Cn2cc(NC(=O)c3cnn4cccnc34)c(-c3cc(Cl)ccc3OC(F)F)n2)CC1
Challenge: Arrange the 4 compounds from largest to smallest pKi. # answer = labels listed in requested order
Response given: B, D, A, C
(B: 9.82, D: 9.35, A: 8.85, C: 8.46)

----------
- target_system: isolated recombinant JAK2 kinase domain (Homo sapiens (Human), UniProt O60674)
- Sequence (O60674 849-1124): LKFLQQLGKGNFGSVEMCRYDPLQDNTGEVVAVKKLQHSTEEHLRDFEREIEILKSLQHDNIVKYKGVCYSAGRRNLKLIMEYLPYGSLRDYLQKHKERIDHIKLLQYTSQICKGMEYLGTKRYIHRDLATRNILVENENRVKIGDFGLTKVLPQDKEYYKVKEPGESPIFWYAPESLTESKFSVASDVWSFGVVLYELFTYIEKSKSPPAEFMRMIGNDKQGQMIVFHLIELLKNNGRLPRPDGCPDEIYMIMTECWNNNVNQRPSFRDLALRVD
- assay_name: JAK2 enzyme assay (Caliper LabChip, peptide phosphorylation)
- reported_conditions: 25 μM ATP
pKi: −log10 of the molar value.
test_readout: pKi

Guide cases for pKi, answers given:
>>> measurement("O=C(Nc1cn(CC(=O)N2CCN(Cc3ccccc3)CC2)nc1-c1cc(Cl)ccc1OC(F)F)c1cnn2cccnc12 [Example 320]")
9.22
>>> measurement("N#CC1CN(C2CCN(C(=O)Cn3cc(NC(=O)c4cnn5cccnc45)c(-c4cc(Cl)ccc4OC(F)F)n3)CC2)C1 [Example 446]")
8.89
>>> measurement("O=C(Nc1cn(C2CCN(CCCN3CCOCC3)CC2)nc1-c1cc(Cl)ccc1OC(F)F)c1cnn2cccnc12 [Example 158]")
9.59
>>> measurement("CCN(Cc1cccnc1)C(=O)Cn1cc(NC(=O)c2cnn3cccnc23)c(-c2cc(Cl)ccc2OC(F)F)n1 [Example 301]")
9.44
>>> measurement("O=C(Nc1cn(CC(=O)N2CC3(CCNCC3)C2)nc1-c1cc(Cl)ccc1OC(F)F)c1cnn2cccnc12 [Example 217]")
8.86

[a] Nc1nn2cccnc2c1C(=O)Nc1cn(C2CCN(CCCC(=O)N3CCCCC3)CC2)nc1-c1cc(Cl)ccc1OC(F)F [Example 143]
[b] O=C(CN1CCCCC1)Cn1cc(NC(=O)c2cnn3cccnc23)c(-c2cc(Cl)ccc2OC(F)F)n1 [Example 418]
[c] O=C(Nc1cn(CC(=O)N2CCC(C(=O)N3CCNCC3)CC2)nc1-c1cc(Cl)ccc1OC(F)F)c1cnn2cccnc12 [Example 408]
[d] Nc1nn2cccnc2c1C(=O)Nc1cn(C2CCN(Cc3ccccc3)CC2)nc1-c1cc(Cl)ccc1OC(F)F [Example 178]
Challenge: Form: Sort by [pKi] Order [ ascending ] # answer = labels listed in requested order
Response given: c, b, d, a
(c: 8.64, b: 9.10, d: 9.37, a: 9.74)

----------
- System: JAK1-dependent STAT6 phosphorylation downstream of IL-13 stimulation in TF-1 human erythroleukemia cells
- assay_name: JAK1 pathway assay in TF-1 cells (IL-13-pSTAT6, MSD)
- Format: cell-based
- reported_conditions: Homo sapiens, TF-1, TF-1 cells, read-out: IL13-pSTAT6 EC50_TF-1
- Procedure: JAK1 Pathway Assay in Cell Lines was Carried Out as Follows: Inhibitor potency (EC50) was determined in cell-based assays designed to measure JAK1 dependent STAT phosphorylation. […] Test compounds were serially diluted 1:2 in DMSO and then diluted 1:50 in medium just before use. […] Then, cells were stimulated with human recombinant cytokine at their respective EC90 concentrations, as previously determined for each individual lot. […]
test_readout: EC50 (nM)

Guide cases for EC50, answers given:
>>> measurement("CN1CC[C@H]2CN(C(=O)Cn3cc(NC(=O)c4cnn5cccnc45)c(-c4cc(Cl)ccc4OC(F)F)n3)CC[C@H]21")
3.1
>>> measurement("CN1CC[C@H]2[C@@H](CCN2C(=O)Cn2cc(NC(=O)c3cnn4cccnc34)c(-c3cc(Cl)ccc3OC(F)F)n2)C1")
55.8
>>> measurement("CN(C)C(=O)N1CCC(CN2C[C@@H]3CN(C(=O)Cn4cc(NC(=O)c5cnn6cccnc56)c(-c5cc(Cl)ccc5OC(F)F)n4)C[C@@H]3C2)CC1")
57.6
>>> measurement("CN(C)C[C@H]1CCCN1C(=O)Cn1cc(NC(=O)c2c(N)nn3cccnc23)c(-c2cc(Cl)ccc2OC(F)F)n1")
52.4
>>> measurement("Nc1nn2cccnc2c1C(=O)Nc1cn(C2CCN(CCOCc3ccccc3)CC2)nc1-c1cc(Cl)ccc1OC(F)F")
38.4

[A] O=C(Nc1cn(CC(=O)N2CCC(N3Cc4ccc(Cl)cc4C3)CC2)nc1-c1cc(Cl)ccc1OC(F)F)c1cnn2cccnc12
[B] O=C(Nc1cn(C2CCN(CCCC(=O)N3CCOCC3)CC2)nc1-c1cc(Cl)ccc1OC(F)F)c1cnn2cccnc12
[C] CN(C)C1CCN(Cc2nc(-c3cc(Cl)ccc3OC(F)F)c(NC(=O)c3cnn4cccnc34)s2)CC1
[D] O=C(CCCN1CCC(n2cc(NC(=O)c3cnn4cccnc34)c(-c3cc(Cl)ccc3OC(F)F)n2)CC1)NC1CCOCC1
Challenge: Form: Sort by [EC50] Order [ ascending ] # answer = labels listed in requested order
Response given: B, D, A, C
(B: 6.8 nM, D: 11.9 nM, A: 26.9 nM, C: 68.5 nM)

[1] CN(CCc1ccc(O)cc1)C1CCN(C(=O)Cn2cc(NC(=O)c3cnn4cccnc34)c(-c3cc(Cl)ccc3OC(F)F)n2)CC1
[2] CN(CC1(C)COC1)C1CCN(c2nc(-c3cc(Cl)ccc3OC(F)F)c(NC(=O)c3cnn4cccnc34)s2)CC1
Challenge: // select label with min value of measured EC50 from [ 1 , 2 ] Return value: the label identifying the chosen record.
Response given: 2

----------
- target_system: isolated recombinant JAK2 kinase domain (Homo sapiens (Human))
- assay_name: JAK2 enzyme assay (Caliper LabChip, peptide phosphorylation)
- Format: biochemical
- reported_conditions: 25 μM ATP
pKi: −log10 of the molar value.
test_readout: pKi

Guide cases for pKi, answers given:
>>> measurement("O=C(Nc1cn(CCN[C@@H]2CCOC2)nc1-c1cc(Cl)ccc1OC(F)F)c1cnn2cccnc12")
9.40
>>> measurement("O=C(Nc1cn(CC(O)CN2CCCCC2)nc1-c1cc(Cl)ccc1OC(F)F)c1cnn2cccnc12 (stereo not shown)")
9.17
>>> measurement("O=C(O)CN(CCn1cc(NC(=O)c2cnn3cccnc23)c(-c2cc(Cl)ccc2OC(F)F)n1)Cc1cccnc1")
8.92
>>> measurement("O=C(Nc1cn(CC2(O)CCCC2)nc1-c1cc(Cl)ccc1OC(F)F)c1cnn2cccnc12")
9.40
>>> measurement("N=C(N)CCCn1cc(NC(=O)c2cnn3cccnc23)c(-c2cc(Cl)ccc2OC(F)F)n1")
9.49

[A] CCN1CCN(C(=O)Cn2cc(NC(=O)c3cnn4cccnc34)c(-c3cc(Cl)ccc3OC(F)F)n2)CC1
[B] CN1C[C@@H]2CN(C(=O)Cn3cc(NC(=O)c4cnn5cccnc45)c(-c4cc(Cl)ccc4OC(F)F)n3)C[C@]2(c2ccccc2)C1 [Example 44]
Challenge: Field: entry with larger pKi (options A / B ). Return value: the label identifying the chosen record.
Response given: B
(B: 9.66, A: 8.84)

----------
The following compounds are shown together with reported EC50 values.
- Tested on: JAK1-dependent STAT6 phosphorylation downstream of IL-13 stimulation in BEAS-2B human bronchial epithelial cells
- assay_name: JAK1 pathway assay in BEAS-2B cells (IL-13-pSTAT6, MSD)
- Assay type: cell-based
- reported_conditions: read-out: IL13-pSTAT6 EC50 (uM)_BEAS-2B
Give just the number in µM; leave the unit off.

Challenge: Dear colleague, please send me the reported EC50 for CN1CCN(CC2CCN(C(=O)Cn3cc(NC(=O)c4cnn5cccnc45)c(-c4cc(Cl)ccc4OC(F)F)n3)CC2)CC1 when you can.
Response given: 0.0094

Challenge: Dear colleague, please send me the reported EC50 for O=C(Nc1cn(CC(=O)N2C[C@H]3CN(CC4CCC4)C[C@H]3C2)nc1-c1cc(Cl)ccc1OC(F)F)c1cnn2cccnc12 when you can.
Response given: 0.128

Challenge: Dear colleague, please send me the reported EC50 for COCCNCCn1cc(NC(=O)c2cnn3cccnc23)c(-c2cc(Cl)ccc2OC(F)F)n1 when you can.
Response given: 0.0367

Challenge: Dear colleague, please send me the reported EC50 for O=C(Nc1cn(CC(=O)N2CCN(CCN3CCSCC3)CC2)nc1-c1cc(Cl)ccc1OC(F)F)c1cnn2cccnc12 when you can.
Response given: 0.0068

Challenge: Dear colleague, please send me the reported EC50 for CCN(Cc1cccnc1)C(=O)Cn1cc(NC(=O)c2cnn3cccnc23)c(-c2cc(Cl)ccc2OC(F)F)n1 when you can.
Response given: 0.0095

Challenge: Dear colleague, please send me the reported EC50 for CCOC(=O)CNCCn1cc(NC(=O)c2cnn3cccnc23)c(-c2cc(Cl)ccc2OC(F)F)n1 when you can.
Response given: 0.0659
